# Method description: Half life in mouse at 0.5 mg/kg, iv
# Type: ADME, organism-based
# Set-up: dose 0.5 mg/kg, route intravenous
# Condition notes: in vivo
Measured quantity: half-life (h)

# Substance smiles, half-life, h
data = [
    ("CC(C)(C)S(=O)(=O)C[C@H](C1CC1)N1C(=O)[C@@](C)(Cc2ncc(CC(=O)O)s2)C[C@H](c2cccc(Cl)c2)[C@H]1c1ccc(Cl)c(F)c1", 3.2),
]

P. CC(C)(C)S(=O)(=O)C[C@H](C1CC1)N1C(=O)[C@@](C)(Cc2ccc(C(=O)O)cn2)C[C@H](c2cccc(Cl)c2)[C@H]1c1ccc(Cl)cc1
Q. CC(C)(C)S(=O)(=O)C[C@H](C1CC1)N1C(=O)[C@@](C)(Cc2ncc(C(=O)O)s2)C[C@H](c2cccc(Cl)c2)[C@H]1c1ccc(Cl)c(F)c1
Between item P and item Q , which reported half-life is smaller? Field: selected label. Fill in the label of the entry you choose.
P

P. CC(C)(C)S(=O)(=O)C[C@H](C1CC1)N1C(=O)[C@@](C)(Cc2ncc(C(=O)O)s2)C[C@H](c2cccc(Cl)c2)[C@H]1c1ccc(Cl)cc1
Q. CC(C)(C)S(=O)(=O)C[C@H](C1CC1)N1C(=O)[C@@](C)(Cc2ncc(CC(=O)O)s2)C[C@H](c2cccc(Cl)c2)[C@H]1c1ccc(Cl)cc1
Between item P and item Q , which reported half-life is smaller? Field: selected label. Fill in the label of the entry you choose.
Q
